Attribution: PubChem BioAssay AID1745844

# Test system: rodent lifetime carcinogenesis bioassay, tumor incidence TD50
# assay.notes: carcinogenic potency in animals, long-term in vivo studies, CPDB compilation (AID 1745844)
# assay.conditions: mouse; strain B6C3F1; males; in feed; site: kidney; lesion: tubular-cell adenoma + tubular-cell adenocarcinoma; dosed 103 weeks; study length 104 weeks
Each entry below carries its reported TD50.

compound: O=P(OCC(Br)CBr)(OCC(Br)CBr)OCC(Br)CBr (configuration not stated)
reported.result: 256 mg/kg/day

Input: # query: TD50 | item C[C@](N)(Cc1ccc(O)c(O)c1)C(=O)O | system: rodent lifetime carcinogenesis bioassay, tumor incidence TD50
Output: 20100 mg/kg/day
